Source: patent US6841567B1

target: VEGF receptor (human flk-1, KDR, VEGFR2) kinase domain (Homo sapiens, UniProt P35968); construct: VEGF receptor (human flk-1, KDR, VEGFR2) kinase domain; made in house; host or cells: baculovirus expression system; test: Inhibition of vascular endothelial growth factor receptor kinase activity (ELISA); type: biochemical; settings: 40 μM ATP
Sequence (P35968 834-1162 limits assumed): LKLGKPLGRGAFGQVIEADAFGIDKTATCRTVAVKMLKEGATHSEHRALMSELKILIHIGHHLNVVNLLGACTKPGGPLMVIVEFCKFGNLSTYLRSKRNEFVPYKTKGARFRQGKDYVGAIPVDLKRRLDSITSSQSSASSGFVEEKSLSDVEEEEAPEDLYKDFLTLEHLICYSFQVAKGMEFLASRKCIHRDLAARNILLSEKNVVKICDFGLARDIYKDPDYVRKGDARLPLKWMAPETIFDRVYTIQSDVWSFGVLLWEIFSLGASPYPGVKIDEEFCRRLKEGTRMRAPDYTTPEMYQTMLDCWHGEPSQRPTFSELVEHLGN
quantity: pIC50
# pIC50 = -log10(concentration in molar units)

Example results:
{"compound": "O=C1NCc2c1c1c(c3[nH]c4ccccc4c23)C(C2CCC(O)O2)c2ccccc2-1 (single isomer, unassigned) [II-38]", "quantity": "pIC50", "observed_result": 5.29}
{"compound": "O=C1NCc2c1c1c(c3[nH]c4ccccc4c23)C(C2CCC(O)O2)c2ccccc2-1 (racemic) [II-23]", "quantity": "pIC50", "observed_result": 7.10}

Consider the compound CCOC1CCC(CO)(C2c3cc(OC)ccc3-c3c4c(c5c([nH]c6ccccc65)c32)CNC4=O)O1 (single isomer, unassigned) and give its measured pIC50. 6.91

Which pIC50 value belongs to O=C1NCc2c1c1c(c3c2c2ccccc2n3C[C@@H]2CO2)Cc2ccccc2-1 [II-01b] ? 6.58

What measured pIC50 goes with O=C1NCc2c1c1c(c3[nH]c4ccccc4c23)C(C2(O)CCCO2)c2ccccc2-1 (stereo not drawn) ? 5.86

If you can, please state the reported pIC50 value of COc1ccc2c(c1)C(C1(CO)CCCO1)c1c-2c2c(c3c1[nH]c1ccccc13)CNC2=O (stereo not drawn) . 6.68

====

Measured inhibition at 0.3 µM, listed per entry.
target: VEGF receptor (human flk-1, KDR, VEGFR2) kinase domain (Homo sapiens, UniProt P35968); construct: VEGF receptor (human flk-1, KDR, VEGFR2) kinase domain; made in house; host or cells: baculovirus expression system; assay: Inhibition of vascular endothelial growth factor receptor kinase activity (ELISA); type: biochemical; settings: 300 nM compound; read-out: VEGF receptor kinase activity % Inh. @ 300 nM (values in parentheses)
Respond with the bare value in %.

Requested field: inhibition at 0.3 µM. Item: CC1C=CC(C(O)C2c3ccccc3-c3c4c(c5c([nH]c6ccccc65)c32)CNC4=O)n2c(=O)n(-c3ccccc3)c(=O)n21 (stereo not shown) [II-64] 20

Requested read-out: inhibition at 0.3 µM. Entry: CCNC(=O)OCC1(C2c3ccccc3-c3c4c(c5c6ccccc6n(C(=O)NCC)c5c32)CNC4=O)CCCO1 (stereo not shown) [II-68] 31

====

molecular target: baculovirus-expressed human trkA cytoplasmic domain (Homo sapiens, UniProt P04629)
Sequence (P04629 440-796 limits assumed): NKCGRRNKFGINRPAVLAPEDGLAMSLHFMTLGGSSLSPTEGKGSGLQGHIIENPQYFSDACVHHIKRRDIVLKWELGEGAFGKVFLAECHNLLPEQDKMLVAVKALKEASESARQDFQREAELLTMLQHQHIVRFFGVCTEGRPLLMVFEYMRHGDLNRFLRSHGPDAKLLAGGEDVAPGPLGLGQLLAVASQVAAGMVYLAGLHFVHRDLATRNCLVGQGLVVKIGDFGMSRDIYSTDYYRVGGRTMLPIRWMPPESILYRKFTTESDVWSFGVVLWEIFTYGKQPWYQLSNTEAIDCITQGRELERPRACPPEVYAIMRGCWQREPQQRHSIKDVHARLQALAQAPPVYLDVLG
pIC50: −log10 of the molar value.
Short version: pIC50 at least 7 is Satisfied, less is Not satisfied.

Kindly determine if pIC50 recorded for CC1(C2c3ccccc3-c3c4c(c5c([nH]c6ccccc65)c32)CNC4=O)CCCO1 (racemic) [II-04] is above or exactly 7. Satisfied

Hello, I need to know if CCOC1CCC(C2c3ccccc3-c3c4c(c5c([nH]c6ccccc65)c32)CNC4=O)O1 (stereo not shown) [II-40a] has measured pIC50 not below 7. Thanks! Satisfied

Does the reported pIC50 for CC1(C2c3ccccc3-c3c4c(c5c([nH]c6ccccc65)c32)CNC4=O)CCCCO1 (stereo not shown) fall at or above the 7 mark? Not satisfied

Determine whether this compound has pIC50 no lower than 7: CC1(C2c3ccccc3-c3c4c(c5c([nH]c6ccccc65)c32)CNC4=O)CCCO1 (single isomer, unassigned) [II-30a] Not satisfied

Please indicate if the recorded pIC50 for CC1(C2c3ccccc3-c3c4c(c5c([nH]c6ccccc65)c32)CNC4=O)CC(=O)CO1 (stereo not shown) meets or exceeds 7. Not satisfied
